# Subject Of Test: recombinant human c-Met/HGF receptor (Homo sapiens, UniProt P08581)
# Construct: His tag
# Sequence (P08581 1078-1337): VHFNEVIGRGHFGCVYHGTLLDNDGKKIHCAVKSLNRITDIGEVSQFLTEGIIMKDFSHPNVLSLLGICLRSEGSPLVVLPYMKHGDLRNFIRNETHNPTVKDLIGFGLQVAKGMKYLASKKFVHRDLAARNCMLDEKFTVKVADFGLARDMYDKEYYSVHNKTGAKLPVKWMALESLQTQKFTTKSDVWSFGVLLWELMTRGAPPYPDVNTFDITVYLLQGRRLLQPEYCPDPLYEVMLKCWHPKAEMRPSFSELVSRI
# Protocol Description: In vitro receptor tyrosine kinase assay, c-Met (DELFIA)
# Condition Description: ATP 10 uM, enzyme 25 nM; read-out: Potency in enzyme assays Cmet

[
  {
    "Molecule": "CC(=O)Nc1ccc(Oc2cccc(NC(=O)N3CCN(c4ccccc4)C3=O)c2)cn1 [Compound 31a]",
    "Subject Of Test": "recombinant human c-Met/HGF receptor (Homo sapiens, UniProt P08581)",
    "IC50": "250 to 500 nM"
  },
  {
    "Molecule": "O=C(Nc1ccc(Oc2ccnc(Nc3ccccc3)n2)c(F)c1)N1CCN(c2ccccc2)C1=O [Compound 61a]",
    "Subject Of Test": "recombinant human c-Met/HGF receptor (Homo sapiens, UniProt P08581)",
    "IC50": "500 to 1000 nM"
  },
  {
    "Molecule": "O=C(Nc1cc(Oc2ccc(NC(=O)N3CCN(c4ccccc4)C3=O)cc2F)ccn1)N1CCCC1 [Compound 18a]",
    "Subject Of Test": "recombinant human c-Met/HGF receptor (Homo sapiens, UniProt P08581)",
    "IC50": "< 250 nM"
  },
  {
    "Molecule": "CN(C)CCCNC(=O)Nc1cc(Oc2ccc(NC(=O)N3CCN(c4ccccc4)C3=O)cc2F)ccn1 [Compound 18c]",
    "Subject Of Test": "recombinant human c-Met/HGF receptor (Homo sapiens, UniProt P08581)",
    "IC50": "500 to 1000 nM"
  },
  {
    "Molecule": "CN(C)[C@@H]1CCN(C(=O)Nc2cc(Oc3ccc(NC(=O)N4CCN(c5ccc(F)cc5)C4=O)cc3F)ccn2)C1 [Compound 18g]",
    "Subject Of Test": "recombinant human c-Met/HGF receptor (Homo sapiens, UniProt P08581)",
    "IC50": "< 250 nM"
  },
  {
    "Molecule": "O=C(NCCN1CCOCC1)c1cc(Oc2ccc(NC(=O)N3CCN(c4ccccc4)C3=O)cc2F)ccn1 [Compound 87c]",
    "Subject Of Test": "recombinant human c-Met/HGF receptor (Homo sapiens, UniProt P08581)",
    "IC50": "≥ 1000 nM"
  },
  {
    "Molecule": "O=C(CC(Nc1ccc(Oc2cc(NC(=O)N3CCCC3)ncn2)c(F)c1)C(F)(F)F)Nc1ccccc1 (stereo not shown)",
    "Subject Of Test": "recombinant human c-Met/HGF receptor (Homo sapiens, UniProt P08581)",
    "IC50": "≥ 1000 nM"
  },
  {
    "Molecule": "O=C(Nc1cc(Oc2ccc(NC(=O)N3CCN(c4ccc(F)cc4)C3=O)cc2F)ccn1)N1CCCC1 [Compound 18b]",
    "Subject Of Test": "recombinant human c-Met/HGF receptor (Homo sapiens, UniProt P08581)",
    "IC50": "< 250 nM"
  },
  {
    "Molecule": "COc1ccc(Nc2nccc(Oc3ccc(NC(=O)N4CCN(c5ccccc5)C4=O)cc3F)n2)cc1 [Compound 61b]",
    "Subject Of Test": "recombinant human c-Met/HGF receptor (Homo sapiens, UniProt P08581)",
    "IC50": "500 to 1000 nM"
  },
  {
    "Molecule": "O=C(Nc1ccc(Oc2cc(NC(=O)N3CCCC3)ncn2)c(F)c1)C1CCN(c2ccccc2)C1=O (stereo not shown)",
    "Subject Of Test": "recombinant human c-Met/HGF receptor (Homo sapiens, UniProt P08581)",
    "IC50": "≥ 1000 nM"
  },
  {
    "Molecule": "CN(C)[C@H]1CCN(C(=O)Nc2cc(Oc3ccc(NC(=O)N4CCN(c5ccc(F)cc5)C4=O)cc3F)ccn2)C1 [Compound 18h]",
    "Subject Of Test": "recombinant human c-Met/HGF receptor (Homo sapiens, UniProt P08581)",
    "IC50": "< 250 nM"
  },
  {
    "Molecule": "CN(C)CCCOC(=O)Nc1cc(Oc2ccc(NC(=O)N3CCN(c4ccccc4)C3=O)cc2F)ccn1 [Compound 18i]",
    "Subject Of Test": "recombinant human c-Met/HGF receptor (Homo sapiens, UniProt P08581)",
    "IC50": "< 250 nM"
  },
  {
    "Molecule": "O=C(NCCN1CCOCC1)c1cc(Oc2ccc(NC(=O)N3CCN(c4ccc(F)cc4)C3=O)cc2F)ccn1 [Compound 87d]",
    "Subject Of Test": "recombinant human c-Met/HGF receptor (Homo sapiens, UniProt P08581)",
    "IC50": "≥ 1000 nM"
  }
]

The values you see were collected from patent US20080255155A1.
